System: OVCAR-4 ovarian
Assay: NCI tumour cell line growth inhibition, 48 h
measureName: TGI

>>> result("CC(=O)ON(OC(C)=O)c1ccc(C)cc1")
"> 100 µM"
>>> result("CN(C)CCNC(=O)c1ccc(Nc2nc3ccccc3c3occc23)cc1")
"> 100 µM"
>>> result("O=S(=O)([O-])[O-].[OH3+].[OH3+].[OH3+].[Ru+2].c1ccccc1")
"> 100 µM"

====

Tested on: MCF7 breast
Assay: NCI tumour cell line growth inhibition, 48 h
measureName: TGI (µM)

>>> measurednumber("CC(C)(C)[OH+][O-].[O-]c1ccc(Cl)cc1C=Nc1ccc(Cl)cc1[O-].[O]=[V]")
30
>>> measurednumber("O=C(Nc1ccc(-c2nc3cc4ccccc4cc3[nH]2)cc1)c1cccc(Br)c1")
10.4
>>> measurednumber("O=c1c2ccccc2nc2n1NC(c1c(Cl)cccc1Cl)N2c1cccc(Cl)c1 (stereo not given)")
5.2
>>> measurednumber("CC/C=C\\C[C@H](O)C/C=C1/C(=O)C=C[C@@H]1C/C=C\\CCCC(=O)NC(C)C")
13.9

====

Test system: ACHN renal
Test: NCI tumour cell line growth inhibition, 48 h
Attribute: TGI
measureName: TGI (µM)

>>> measurednumber("Oc1c(CN2CCC(N3CCOCC3)CC2)cc(Cc2cc(CN3CCC(N4CCOCC4)CC3)c(O)c3ncccc23)c2cccnc12")
12.9
>>> measurednumber("O=C(Nc1ccc(-c2nc3cc4ccccc4cc3[nH]2)cc1)c1cccc(Br)c1")
31

====

System: A498 renal
Assay: NCI tumour cell line growth inhibition, 48 h
measureName: TGI

>>> result("Cc1ccccc1NC(=O)NC(Oc1ccccc1)(C(F)(F)F)C(F)(F)F")
"> 100 µM"
>>> result("CS(=O)(=O)c1ccc(Oc2cc(F)cc(C#N)c2)c2c1[C@H](O)[C@H](F)[C@@H]2F")
"> 100 µM"
>>> result("CN(C1=NCCO1)c1cccc2ccccc12")
"> 10 µM"
>>> result("CNc1ccccc1C(=O)N/N=C/C=C/c1ccccc1")
"5.81 µM"
>>> result("CNc1ncnc(Sc2nc(N)nc3nc[nH]c23)c1[N+](=O)[O-]")
"> 100 µM"
>>> result("O=C(O)c1ccc(NC(=O)C2C(=O)C(=O)N(c3ccc(C(=O)O)cc3)C2=O)cc1 (stereo not given)")
"> 100 µM"
>>> result("Cn1ccnc1C(=O)/C=C/c1ccc(CC(=O)Nc2ccc(Cl)cc2)cc1")
"> 25 µM"
>>> result("Cc1cc2c(c3c1c1ccccc1n3C)C(=O)C=CC2=O")
"> 100 µM"
>>> result("Cc1cc(-c2ccc(C(=O)O)[nH]2)on1")
"> 100 µM"
>>> result("O=C1OC(c2ccco2)=N/C1=C\\c1ccc(Cl)c(Cl)c1")
"> 100 µM"

====

Test system: PC-3 prostate
Assay: NCI tumour cell line growth inhibition, 48 h
// false strictly below 30 µM in TGI; true otherwise

>>> categorylabel("Cc1[nH]c(=O)[nH]c(=O)c1N(CCF)CCCl")
"true"
>>> categorylabel("CC(C)(C)[OH+][O-].[O-]c1ccc(Cl)cc1C=Nc1ccc(Cl)cc1[O-].[O]=[V]")
"true"
>>> categorylabel("CC(=O)/C(C=Nc1c(C)n(C)n(-c2ccccc2)c1=O)=C(/C)O")
"true"
>>> categorylabel("Clc1ccc(N=C/C=C/Nc2ccc(Cl)cn2)nc1")
"false"
>>> categorylabel("O=C1c2ccccc2-c2c1c1ccccc1c(=O)n2Cc1ccco1")
"true"
>>> categorylabel("CN(C)CCCNc1c(O)c2c(c(O)c1Cl)C(=O)C=CC2=O")
"false"
>>> categorylabel("Oc1ccc(C(c2ccccc2)(c2ccccc2)c2ccccc2)cc1")
"true"
>>> categorylabel("CN(C)CCNC(=O)c1ccc(Nc2nc3ccccc3c3occc23)cc1")
"false"
>>> categorylabel("Cc1ccc(S(=O)ON2CCC(C(=O)O)(c3ccccc3)CC2)cc1 (centres undefined)")
"true"
